# TARGET: T1, human CD39 endogenously expressed on Ramos human lymphoma cells (human, UniProt P49961 1-510)
# T1 sequence: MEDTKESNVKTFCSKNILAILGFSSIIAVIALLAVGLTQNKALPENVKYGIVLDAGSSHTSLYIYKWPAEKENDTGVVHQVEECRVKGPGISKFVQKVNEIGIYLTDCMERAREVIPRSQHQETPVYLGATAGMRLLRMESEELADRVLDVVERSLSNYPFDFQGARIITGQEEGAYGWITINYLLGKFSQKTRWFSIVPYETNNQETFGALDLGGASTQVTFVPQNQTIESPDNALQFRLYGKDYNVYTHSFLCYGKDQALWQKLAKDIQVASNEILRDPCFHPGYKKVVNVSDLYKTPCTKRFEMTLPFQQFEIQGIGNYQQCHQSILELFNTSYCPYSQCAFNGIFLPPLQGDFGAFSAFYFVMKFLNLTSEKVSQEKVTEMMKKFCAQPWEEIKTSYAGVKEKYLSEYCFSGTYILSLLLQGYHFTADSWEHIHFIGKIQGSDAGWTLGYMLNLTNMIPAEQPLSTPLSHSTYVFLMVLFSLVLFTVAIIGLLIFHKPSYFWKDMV
# ASSAY NAME: cell-based or functional assay
Collected inhibition of CD39 enzymatic activity (AMP generated by Ramos cells, Maldi TOF) values appear next to each entry.

The cases that follow already have their inhibition of CD39 enzymatic activity (AMP generated by Ramos cells, Maldi TOF) on record.
>  <BINDER>
mAb6 (antibody, human IgG1, V domains shown, Produced as Fc silent recombinant human IgG1 with heavy chain N297Q (Kabat EU numbering) and huCk constant domain; also called anti-CD39 antibody mAb6) VH: QVQLVQSGSELKKPGASVKVSCKASGYTFTHYGMNWVRQAPGKGLKWMGWINTYTGEPTYADDFKGRFVFSLDTSVSTAYLQISSLKAEDTAVYYCARRRYEGNYVFYYFDYWGQGTTVTVSS VL: DIQMTQSPSSLSASVGDRVTITCRASENIYSYFSWYQQKPGKAPKLLVYTAKTLAEGVPSRFSGSGSGTDFTLTISSLQPEDFATYYCQHHYVTPYTFGGGTKVEIK

>  <RESULT VALUE>
≥ 90%

$$$$
>  <BINDER>
mAb5 (antibody, human IgG1, V domains shown, Produced as Fc silent recombinant human IgG1 with heavy chain N297Q (Kabat EU numbering) and huCk constant domain; also called anti-CD39 antibody mAb5) VH: QVQLVQSGSELKKPGASVKVSCKASGYTFTHYGMNWVRQAPGQGLKWMGWINTYTGEPTYADDFKGRFVFSLDTSVSTAYLQISSLKAEDTAVYYCARRRYEGNYVFYYFDYWGQGTTVTVSS VL: DIQMTQSPSSLSASVGDRVTITCRASENIYSYFSWYQQKPGKAPKLLVYTAKTLAEGVPSRFSGSGSGTDFTLTISSLQPEDFATYYCQHHYVTPYTFGGGTKVEIK

>  <RESULT VALUE>
≥ 90%

$$$$

I'd like to know its inhibition of CD39 enzymatic activity (AMP generated by Ramos cells, Maldi TOF). The binder in question is mAb3 (antibody, human IgG1, V domains shown, Produced as Fc silent recombinant human IgG1 with heavy chain N297Q (Kabat EU numbering) and huCk constant domain; also called anti-CD39 antibody mAb3) VH: QVQLVQSGSELKKPGASVKVSCKASGYTFTHYGMNWVRQAPGKGLKWMGWINTYTGEPTYADDFKGRFVFSLDTSVSTAYLQISSLKAEDTAVYYCARRRYEGNYVFYYFDYWGQGTTVTVSS VL: DIQMTQSPSSLSASVGDRVTITCRASENIYSYFSWYQQKPGKAPKLLIYTAKTLAEGVPSRFSGSGSGTDFTLTISSLQPEDFATYYCQHHYVTPYTFGGGTKVEIK
≥ 90%
